- System: Tyrosine-protein kinase ABL1 (Homo sapiens), P00519 [E255K]
- Sequence (P00519 whole entry E255K): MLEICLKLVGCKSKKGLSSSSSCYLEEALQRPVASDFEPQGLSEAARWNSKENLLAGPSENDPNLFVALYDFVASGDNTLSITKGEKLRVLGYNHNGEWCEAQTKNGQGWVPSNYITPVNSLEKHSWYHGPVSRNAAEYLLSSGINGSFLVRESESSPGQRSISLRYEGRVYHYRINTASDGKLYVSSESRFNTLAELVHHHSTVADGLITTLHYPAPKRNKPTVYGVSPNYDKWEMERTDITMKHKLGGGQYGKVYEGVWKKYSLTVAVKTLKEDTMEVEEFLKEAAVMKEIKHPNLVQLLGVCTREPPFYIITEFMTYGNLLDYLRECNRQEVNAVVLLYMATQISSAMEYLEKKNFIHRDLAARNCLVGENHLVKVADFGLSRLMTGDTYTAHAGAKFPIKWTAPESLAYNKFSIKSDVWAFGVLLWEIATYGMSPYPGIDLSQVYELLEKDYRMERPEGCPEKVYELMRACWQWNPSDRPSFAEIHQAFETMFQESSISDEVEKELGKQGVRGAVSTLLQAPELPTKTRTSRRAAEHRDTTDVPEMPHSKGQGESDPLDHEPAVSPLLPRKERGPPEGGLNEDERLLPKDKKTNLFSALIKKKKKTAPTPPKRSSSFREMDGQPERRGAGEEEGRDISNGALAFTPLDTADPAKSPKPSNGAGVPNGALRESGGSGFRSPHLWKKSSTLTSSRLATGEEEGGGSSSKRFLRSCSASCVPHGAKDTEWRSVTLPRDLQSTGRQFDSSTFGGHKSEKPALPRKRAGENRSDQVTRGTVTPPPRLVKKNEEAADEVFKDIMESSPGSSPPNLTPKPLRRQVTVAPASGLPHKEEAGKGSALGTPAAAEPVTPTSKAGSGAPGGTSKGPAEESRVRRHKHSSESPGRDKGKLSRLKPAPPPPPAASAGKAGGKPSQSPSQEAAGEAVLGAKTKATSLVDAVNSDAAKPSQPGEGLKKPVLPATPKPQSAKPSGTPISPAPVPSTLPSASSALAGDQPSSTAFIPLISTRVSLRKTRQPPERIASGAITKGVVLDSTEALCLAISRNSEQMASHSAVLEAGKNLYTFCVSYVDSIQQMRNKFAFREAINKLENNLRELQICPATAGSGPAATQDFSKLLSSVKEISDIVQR
- condition: at 0.1 µM
readout kind: inhibition (%)
# unit: % | format: bare number

CCCNc1cccc(-n2ncc3c(N/N=C/c4ccncc4)ncnc32)c1
27.1
COc1ccc2ncn(-c3cc(O[C@H](C)c4ccccc4C(F)(F)F)c(C(N)=O)s3)c2c1
-0.4
CC1(C)CC(n2cnc(-c3ccc(F)cc3)c2-c2ccnc(N)n2)CC(C)(C)N1
1.94
COC(=O)Nc1nc2ccc(Oc3ccc(NC(=O)Nc4cc(C(F)(F)F)ccc4F)cc3)cc2s1
17.2
COc1ccc(Nc2ncc(-c3ccccc3)o2)cc1OC
4.59
Cc1cc(O)cc(C)c1/C=C/c1cncc(C(N)=O)c1
15.7
CS(=O)(=O)Nc1ccc(-c2ccc3c(NC(=O)C4CC4)n[nH]c3c2)cc1
2.53
CC1=C(C(=O)Nc2ccc3[nH]ncc3c2)C(c2ccc(F)cc2)N=C(c2ccc(C(F)(F)F)nc2)N1 (stereo unspecified)
2.72

## Input Tell me the measured inhibition of Cc1cc(O)cc(C)c1/C=C/c1cncc(C(=O)OC(C)(C)C)c1 , please.
## Output 4.42

## Input Tell me the measured inhibition of O=C(Nc1n[nH]c2nnc(-c3cccnc3)cc12)C1CC1 , please.
## Output -1.11

## Input Tell me the measured inhibition of Cc1c2ccc(N(C)c3ccnc(Nc4cccc(S(N)(=O)=O)c4)n3)cc2nn1C , please.
## Output 19.6

* * *

Each entry below lists one item and its recorded inhibition value.
- test system: Serine/threonine-protein kinase MRCK alpha (Homo sapiens);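 also: each value is an averaged percent inhibition of MRCK alpha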
- condition: at 1 µM
# unit: % | format: bare number

Worked cases, answers included:
Cc1cc(O)cc(C)c1/C=C/c1cncc(C(=O)OC(C)(C)C)c1
1.93
COc1c(C(N)=O)cc(-c2ccc(Cl)cc2)cc1-c1ccc(S(N)(=O)=O)cc1
4.98

Kindly consider the entry below.
## Input Tell me the measured inhibition of Cc1c2ccc(N(C)c3ccnc(Nc4cccc(S(N)(=O)=O)c4)n3)cc2nn1C , please.
## Output 0.18

* * *

Each entry below lists one item and its recorded inhibition value.
- test system: Serine/threonine-protein kinase D1 (Homo sapiens) (UniProt Q15139);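 also: values given as mean inhibition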
- Sequence (Q15139 whole entry): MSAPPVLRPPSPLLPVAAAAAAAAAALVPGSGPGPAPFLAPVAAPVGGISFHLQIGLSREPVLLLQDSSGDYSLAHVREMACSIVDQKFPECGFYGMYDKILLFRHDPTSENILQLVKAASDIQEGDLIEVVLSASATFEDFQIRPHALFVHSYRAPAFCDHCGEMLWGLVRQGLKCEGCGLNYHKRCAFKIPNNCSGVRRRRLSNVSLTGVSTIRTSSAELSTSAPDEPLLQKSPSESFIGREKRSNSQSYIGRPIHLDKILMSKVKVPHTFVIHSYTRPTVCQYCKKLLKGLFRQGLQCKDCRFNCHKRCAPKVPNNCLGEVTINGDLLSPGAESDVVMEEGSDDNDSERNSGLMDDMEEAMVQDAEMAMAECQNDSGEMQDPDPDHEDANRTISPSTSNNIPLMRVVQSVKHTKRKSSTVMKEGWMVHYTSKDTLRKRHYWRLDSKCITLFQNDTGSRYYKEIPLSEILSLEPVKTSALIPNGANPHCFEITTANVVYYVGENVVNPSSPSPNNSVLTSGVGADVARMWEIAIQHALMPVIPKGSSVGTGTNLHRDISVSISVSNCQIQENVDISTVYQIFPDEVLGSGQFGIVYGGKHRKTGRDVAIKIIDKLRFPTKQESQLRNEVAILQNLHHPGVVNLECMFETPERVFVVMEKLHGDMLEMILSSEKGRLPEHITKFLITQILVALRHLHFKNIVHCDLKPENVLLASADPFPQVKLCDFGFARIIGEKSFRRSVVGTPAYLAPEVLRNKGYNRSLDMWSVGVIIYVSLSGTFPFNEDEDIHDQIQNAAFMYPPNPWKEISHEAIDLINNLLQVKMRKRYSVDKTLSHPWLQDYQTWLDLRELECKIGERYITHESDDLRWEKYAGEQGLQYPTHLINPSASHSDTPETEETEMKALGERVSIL
- condition: at 0.1 µM
# unit: % | format: bare number

Worked cases, answers included:
COC(=O)Nc1nc2ccc(Oc3ccc(NC(=O)Nc4cc(C(F)(F)F)ccc4F)cc3)cc2s1
0.06
CS(=O)(=O)Nc1ccc(-c2cc(-c3ccccc3)cc(C(N)=O)c2N)cc1
1.67
COc1cc(N2CCN(C(C)C)CC2)ccc1Nc1nc(Nc2cccc(F)c2C(=O)O)c2cc[nH]c2n1
3.89
CCS(=O)(=O)c1ccc(OC)c(Nc2ncc(-c3cccc(F)c3)o2)c1
4.25
O=C(O[C@H]1CN[C@H](C#Cc2cc3ncnc(Nc4ccc5c(ccn5Cc5cc(F)ccc5F)c4)c3s2)C1)N1CCOCC1
3.66

## Input Tell me the measured inhibition of COc1c(C(N)=O)cc(-c2ccc(Cl)cc2)cc1-c1ccc(S(N)(=O)=O)cc1 , please.
## Output 4.74

## Input Tell me the measured inhibition of COc1cc(N2CCN(C(C)C)CC2)ccc1Nc1nc(Nc2cccc3ncccc23)c2cc[nH]c2n1 , please.
## Output -0.17

* * *

Each entry below lists one item and its recorded inhibition value.
- test system: Mast/stem cell growth factor receptor Kit (Homo sapiens)
- condition: at 0.1 µM
# unit: % | format: bare number

Worked cases, answers included:
c1cnn2ncc(-c3ccnc(NCCCN4CCOCC4)n3)c2c1
5.59
CS(=O)(=O)CCNCc1ccc(-c2ccc3ncnc(Nc4ccc(OCc5cccc(C(F)(F)F)c5)cc4)c3c2)o1
4.53
CCS(=O)(=O)c1ccc(OC)c(Nc2ncc(-c3cccc(F)c3)o2)c1
74.7
CCn1c(-c2nonc2N)nc2cncc(C(=O)NCCNC)c21
6.23
N#Cc1cccc(Nc2ncc(-c3ccccc3)o2)c1
19.9
c1ccc(-c2n[nH]cc2-c2ccnc(-c3ccc(OCCn4ccnc4)cc3)c2)nc1
1.62
CN(c1ccc(NC(=O)NCCN2CCOCC2)cc1)c1ccnc(Nc2ccc(CS(C)(=O)=O)cc2)n1
60.2
Cc1cc(O)cc(C)c1/C=C/c1cncc(C(=O)OC(C)(C)C)c1
38.3

Kindly consider the entry below.
## Input Request: inhibition, test system Mast/stem cell growth factor receptor Kit (Homo sapiens), entry CCN1CCC(C(=O)Nc2n[nH]c3nnc(-c4cccc(F)c4F)cc23)CC1;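 also: values are mean inhibition of KIT, from the GSK PKIS dataset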
## Output 1.8
